Quick reference for EC50 among some compounds
Tested on: sweating of mouse foot (pilocarpine-stimulated)
Assay: Mouse foot antiperspirant assay
Type: in vivo, ICR/CD-1 male albino mice
Conditions: esters synthesized via acid chloride; s.c. 5 μL in foot pad, pilocarpine-stimulated sweating; average EC50

{"compound": "CC1CC(OC(=O)C(OC(=O)C2CCCCC2)c2ccccc2)CC(C)(C)N1C.Cl (stereo not drawn)", "EC50, mM": 43}
{"compound": "CCCCCCCC(=O)OC(C(=O)OC1CC(C)N(C)C(C)(C)C1)c1ccccc1.Cl (stereo not drawn) [Octanoate]", "EC50, mM": 9.6}
{"compound": "CC1CC(OC(=O)C(OC(=O)C2CC2)c2ccccc2)CC(C)(C)N1C.Cl (stereo not drawn)", "EC50, mM": 36}
